// values below are reported inhibition at 2 µM
Test system: H1975 cells
Experiment Summary: CCK-8 antiproliferation assay, H1975
Particulars: Homo sapiens, NCI-H1975, read-out: Inhibitory efficacy, H1975 cells; 2uM; given as fraction; Repeat 1-3
Parameter Measured: inhibition at 2 µM (%)

1. COCCOc1cc2ncnc(Nc3cccc(-c4cn(-c5ccc(C)cc5O)nn4)c3)c2cc1OCCOC
26.2
2. COCCOc1cc2ncnc(Nc3cccc(-c4cn(-c5ccccc5OC)nn4)c3)c2cc1OCCOC
29.1
3. COCCOc1cc2ncnc(Nc3cccc(-c4cn(Cc5ccccc5)nn4)c3)c2cc1OCCOC [e1]
24.3
4. COCCOc1cc2ncnc(Nc3cccc(-c4cn(Cc5cc(Br)cc(Br)c5)nn4)c3)c2cc1OCCOC
30.2

----------
Target Of Assay: wild-type EGFR (Homo sapiens)
Sequence (P00533 25-1210): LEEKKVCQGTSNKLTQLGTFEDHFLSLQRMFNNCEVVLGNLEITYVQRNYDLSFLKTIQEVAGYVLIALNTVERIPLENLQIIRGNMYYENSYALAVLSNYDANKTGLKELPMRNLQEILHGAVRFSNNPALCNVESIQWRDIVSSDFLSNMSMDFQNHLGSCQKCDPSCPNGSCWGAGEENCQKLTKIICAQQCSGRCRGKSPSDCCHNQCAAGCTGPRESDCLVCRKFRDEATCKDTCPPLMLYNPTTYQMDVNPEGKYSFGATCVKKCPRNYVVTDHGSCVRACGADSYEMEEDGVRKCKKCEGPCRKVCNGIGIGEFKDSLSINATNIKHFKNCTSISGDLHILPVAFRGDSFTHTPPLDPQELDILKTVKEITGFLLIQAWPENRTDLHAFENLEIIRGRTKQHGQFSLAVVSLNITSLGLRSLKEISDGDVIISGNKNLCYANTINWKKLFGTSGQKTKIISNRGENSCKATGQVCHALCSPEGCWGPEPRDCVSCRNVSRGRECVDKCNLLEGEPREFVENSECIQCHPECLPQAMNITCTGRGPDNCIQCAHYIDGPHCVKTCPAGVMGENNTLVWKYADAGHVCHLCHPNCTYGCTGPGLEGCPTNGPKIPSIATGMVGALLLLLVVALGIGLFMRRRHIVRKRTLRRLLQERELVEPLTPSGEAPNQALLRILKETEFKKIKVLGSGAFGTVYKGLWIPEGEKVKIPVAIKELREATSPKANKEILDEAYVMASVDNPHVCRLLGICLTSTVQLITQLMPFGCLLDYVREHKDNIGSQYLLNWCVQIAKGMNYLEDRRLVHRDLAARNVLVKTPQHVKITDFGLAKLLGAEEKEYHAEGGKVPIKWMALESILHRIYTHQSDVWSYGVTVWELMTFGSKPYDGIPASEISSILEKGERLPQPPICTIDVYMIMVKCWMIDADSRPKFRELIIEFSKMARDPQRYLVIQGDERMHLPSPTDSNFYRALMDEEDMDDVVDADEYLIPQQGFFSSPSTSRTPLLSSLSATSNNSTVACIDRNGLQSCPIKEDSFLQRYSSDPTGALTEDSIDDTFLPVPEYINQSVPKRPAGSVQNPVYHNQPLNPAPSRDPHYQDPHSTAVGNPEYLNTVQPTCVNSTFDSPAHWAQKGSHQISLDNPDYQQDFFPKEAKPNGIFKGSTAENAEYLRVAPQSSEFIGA
Experiment Summary: EGFR kinase assay (ELISA)
Particulars: concentration 30000 nM; one value per replicate column; 30 µM
Threshold rule: Inhibition greater than or equal to 70 is Criterion met; below that, Criterion not met.

1) COCCOc1cc2ncnc(Nc3cccc(-c4cn(Cc5ccccc5I)nn4)c3)c2cc1OCCOC [e2]
Criterion met
2) COCCOc1cc2ncnc(Nc3cccc(-c4cn(-c5ccc(Br)cc5)nn4)c3)c2cc1OCCOC [e10]
Criterion met
3) CCOc1cccc(-n2cc(-c3cccc(Nc4ncnc5cc(OCCOC)c(OCCOC)cc45)c3)nn2)c1 [e14]
Criterion met
4) COCCOc1cc2ncnc(Nc3cccc(-c4cn(Cc5ccccc5Br)nn4)c3)c2cc1OCCOC [e3]
Criterion not met
5) COCCOc1cc2ncnc(Nc3cccc(-c4cn(-c5ccccc5C(F)(F)F)nn4)c3)c2cc1OCCOC [e16]
Criterion not met
6) COCCOc1cc2ncnc(Nc3cccc(-c4cn(-c5ccc(OC)cc5OC)nn4)c3)c2cc1OCCOC [e17]
Criterion not met
7) COCCOc1cc2ncnc(Nc3cccc(-c4cn(-c5ccc(C)cc5)nn4)c3)c2cc1OCCOC [e12]
Criterion met
8) COCCOc1cc2ncnc(Nc3cccc(-c4cn(-c5ccccc5OC)nn4)c3)c2cc1OCCOC [e11]
Criterion not met
9) COCCOc1cc2ncnc(Nc3cccc(-c4cn(-c5ccccc5)nn4)c3)c2cc1OCCOC [e15]
Criterion met
10) COCCOc1cc2ncnc(Nc3cccc(-c4cn(-c5ccc(OC)c(OC)c5)nn4)c3)c2cc1OCCOC [e19]
Criterion not met
11) COCCOc1cc2ncnc(Nc3cccc(-c4cn(Cc5ccccc5)nn4)c3)c2cc1OCCOC [e1]
Criterion met
12) COCCOc1cc2ncnc(Nc3cccc(-c4cn(CCc5ccccc5)nn4)c3)c2cc1OCCOC [e20]
Criterion met

----------
Test system: H460 cells
Experiment Summary: CCK-8 antiproliferation assay, H460
Particulars: Homo sapiens, NCI-H460, 48 h, read-out: IC50 (μM) H460, CCK-8, 48 h, average ± SD of three independent experiments
Parameter Measured: IC50 (µM)

1) COCCOc1cc2ncnc(Nc3cccc(-c4cn(-c5ccccc5F)nn4)c3)c2cc1OCCOC
18.5
2) CCOc1cccc(-n2cc(-c3cccc(Nc4ncnc5cc(OCCOC)c(OCCOC)cc45)c3)nn2)c1
34.1
3) COCCOc1cc2ncnc(Nc3cccc(-c4cn(-c5ccccc5Cl)nn4)c3)c2cc1OCCOC
4.18
4) COCCOc1cc2ncnc(Nc3cccc(-c4cn(-c5ccc(Br)cc5)nn4)c3)c2cc1OCCOC
15
5) COCCOc1cc2ncnc(Nc3cccc(-c4cn(Cc5ccccc5I)nn4)c3)c2cc1OCCOC [e2]
9.08
6) COCCOc1cc2ncnc(Nc3cccc(-c4cn(-c5ccc(C)cc5O)nn4)c3)c2cc1OCCOC
4.3
